System: BDF1 mice, P388 leukemia ip, median survival T/C
Test: NCI In Vivo Anticancer Drug Screen. Data for tumor model P388 Leukemia (intraperitoneal) in B6D2F1 (BDF1) mice
Conditions: endpoint: median survival time; dose: 6.25 mg/kg/injection; schedule: Q01DX009 (ip); vehicle: saline with Tween-80
Inconclusive results and toxic doses are left out. Rule for the calls: active = survival T/C of 150% or more; inactive = T/C below 125% in these data.
Write down one outcome, taken from 1 (active), 0 (inactive)

# lookup: test call for `O=[N+]([O-])/C=C/c1ccc(O)cc1`
0

Repeat for the following compound: `COc1cc(/C=C/[N+](=O)[O-])c(OC)cc1Br`
0

Repeat for the following compound: `CCOC(=O)C(=CNc1ccccc1OC)C(=O)OCC`
0

Repeat for the following compound: `FC(F)(F)C(F)(F)C(F)(F)c1nc2nc(Cl)c(Cl)nc2[nH]1`
0

Repeat for the following compound: `COc1cc(Br)cc(/C=C/[N+](=O)[O-])c1OC`
0

Repeat for the following compound: `CC(=O)CC(OC(=O)c1cc([N+](=O)[O-])cc([N+](=O)[O-])c1)(C(F)(F)F)C(F)(F)F`
0

Repeat for the following compound: `S=c1nc2[nH]c3ccccc3c2n[nH]1`
0

Repeat for the following compound: Cc1ccc(CC2NC(=O)NC2=O)cc1 (configuration not stated)
0

Repeat for the following compound: `Nc1ncc(C(=O)O)c(N)n1`
0

Repeat for the following compound: `O=C(C=C(C(F)(F)F)C(F)(F)F)c1ccc(Cl)cc1`
0

Repeat for the following compound: `CCOC(=O)Nc1nc2ccccc2[nH]1`
0

Repeat for the following compound: `C[Si](C)(OC(=O)N(CCCl)CCCl)O[Si](C)(C)OC(=O)N(CCCl)CCCl`
0

Repeat for the following compound: `Cc1ccc2c(Nc3ccc(NS(C)(=O)=O)cc3)c3ccccc3nc2c1C`
1

Repeat for the following compound: ClC1=NC(Cl)C(Cl)=N/C1=N\c1ncn[nH]1 (configuration not stated)
0

Repeat for the following compound: `Clc1ccc(CNc2ncnc3[nH]ncc23)cc1`
0

Repeat for the following compound: `CCCCCCCCC(=O)Nc1ncnc2n[nH]nc12`
0

Repeat for the following compound: `S=c1[nH]ncn1-c1ccccc1`
0
